measurement target: PKC-β1 (Homo sapiens, UniProt P05771)
Sequence (P05771 whole entry): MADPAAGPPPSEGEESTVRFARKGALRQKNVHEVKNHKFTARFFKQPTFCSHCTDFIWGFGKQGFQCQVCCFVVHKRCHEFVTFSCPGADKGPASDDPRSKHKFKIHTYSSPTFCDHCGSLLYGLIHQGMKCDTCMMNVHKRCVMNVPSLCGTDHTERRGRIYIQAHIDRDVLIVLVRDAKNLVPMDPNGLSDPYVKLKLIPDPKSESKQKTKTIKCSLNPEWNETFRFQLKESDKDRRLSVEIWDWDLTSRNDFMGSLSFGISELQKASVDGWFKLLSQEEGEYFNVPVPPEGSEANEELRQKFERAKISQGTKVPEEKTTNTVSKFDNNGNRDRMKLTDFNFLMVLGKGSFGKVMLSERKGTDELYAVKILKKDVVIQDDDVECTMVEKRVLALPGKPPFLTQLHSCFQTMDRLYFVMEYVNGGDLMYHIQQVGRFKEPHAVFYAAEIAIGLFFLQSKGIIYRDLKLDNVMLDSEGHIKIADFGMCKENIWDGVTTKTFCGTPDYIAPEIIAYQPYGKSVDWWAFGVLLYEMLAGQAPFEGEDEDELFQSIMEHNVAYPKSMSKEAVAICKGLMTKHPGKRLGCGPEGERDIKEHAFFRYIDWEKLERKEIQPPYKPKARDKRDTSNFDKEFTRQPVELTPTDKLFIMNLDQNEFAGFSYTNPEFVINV
assay overview: Z'-LYTE kinase activity assay
condition context: ATP at Kmapp, 2 μM peptide substrate; read-out: IC50 for classical PKC isoforms, PKC-β1
So I've got a bunch of compounds here, and I need their IC50 values.
Hi, when you answer, please include the unit after the number. Thanks!

CN(C)CCCn1cc(C2=C(c3c[nH]c4ccccc34)C(=O)NC2=O)c2ccccc21 [Gӧ-6850]	0.000457 µM

// next item, IC50 requested
# get_value(readout='IC50', item= Cn1c2ccccc2c2c3c(c4c5ccccc5n(CCC#N)c4c21)CNC3=O [Gӧ-6976] )
0.469 µM

* * *

assay overview: In vivo monkey study: tolerability, clinical pathology, histopathology
Set-up: species or system rhesus macaque
condition context: male, rhesus monkey, in vivo; single IV infusion; read-out: maximum tolerated dose
property: MTD (mg/kg)
Answers are plain numbers, in mg/kg.

# get_value(readout='MTD', item= Cc1ccc(C#Cc2ccc3oc(CC(C)(C)C(=O)OCC4(CO)CC(=CCC(CC(C)C)CC(C)C)C(=O)O4)cc3c2)cc1 (stereo not shown) [C-232A] )
0.3

* * *

measurement target: UniProt:P05771
assay overview: PKC isoform translocation in A549-tGFP cells
condition context: 60 minutes
So I've got a bunch of molecules here, and I need their EC50 values.
One number for each entry, in nM.

Cc1ccc(C#Cc2ccc3oc(CC(C)(C)C(=O)OCC4(CO)CC(=CCC(CC(C)C)CC(C)C)C(=O)O4)cc3c2)cc1 (stereo not drawn) [C-232A]	3280
CC(C)=C1CC(CO)(COC(=O)c2ccc(C#Cc3ccc(C)cc3)cc2)OC1=O (stereo not drawn) [Comin compound 2]	966

// next item, EC50 requested
# get_value(readout='EC50', item= CC(C)CC(C/C=C1\CC(CO)(COC(=O)C(C)(C)C)OC1=O)CC(C)C (stereo not drawn) [AJH-863, reference compound] )
1300

* * *

measurement target: PKC-θ (Homo sapiens, UniProt Q04759)
Sequence (Q04759 whole entry): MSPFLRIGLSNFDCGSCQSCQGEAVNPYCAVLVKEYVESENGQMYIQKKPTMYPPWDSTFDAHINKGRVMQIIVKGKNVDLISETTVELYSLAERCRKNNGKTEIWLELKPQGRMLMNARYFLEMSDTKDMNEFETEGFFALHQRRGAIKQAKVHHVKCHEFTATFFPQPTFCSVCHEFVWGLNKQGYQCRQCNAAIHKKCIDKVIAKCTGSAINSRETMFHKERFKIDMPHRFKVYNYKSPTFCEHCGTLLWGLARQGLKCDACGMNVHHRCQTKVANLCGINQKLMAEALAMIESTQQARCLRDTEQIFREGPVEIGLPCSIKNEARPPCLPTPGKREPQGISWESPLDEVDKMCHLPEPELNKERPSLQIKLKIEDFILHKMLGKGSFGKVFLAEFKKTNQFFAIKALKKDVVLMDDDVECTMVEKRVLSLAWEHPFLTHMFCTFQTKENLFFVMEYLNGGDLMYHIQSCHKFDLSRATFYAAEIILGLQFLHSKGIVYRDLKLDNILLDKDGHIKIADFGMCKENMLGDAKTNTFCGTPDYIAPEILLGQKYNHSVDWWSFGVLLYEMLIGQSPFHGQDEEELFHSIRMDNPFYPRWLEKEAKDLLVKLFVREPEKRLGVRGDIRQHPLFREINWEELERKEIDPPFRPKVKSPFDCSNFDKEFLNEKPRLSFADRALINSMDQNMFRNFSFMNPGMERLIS
assay overview: Z'-LYTE kinase activity assay
condition context: ATP at Kmapp, 2 μM peptide substrate; read-out: IC50 for novel PKC isoforms, PKC-θ
property: IC50

# get_value(readout='IC50', item= CN(C)CCCn1cc(C2=C(c3c[nH]c4ccccc34)C(=O)NC2=O)c2ccccc21 )
3 nM

* * *

measurement target: PKC-ε (Homo sapiens, UniProt Q02156)
Sequence (Q02156 1-737): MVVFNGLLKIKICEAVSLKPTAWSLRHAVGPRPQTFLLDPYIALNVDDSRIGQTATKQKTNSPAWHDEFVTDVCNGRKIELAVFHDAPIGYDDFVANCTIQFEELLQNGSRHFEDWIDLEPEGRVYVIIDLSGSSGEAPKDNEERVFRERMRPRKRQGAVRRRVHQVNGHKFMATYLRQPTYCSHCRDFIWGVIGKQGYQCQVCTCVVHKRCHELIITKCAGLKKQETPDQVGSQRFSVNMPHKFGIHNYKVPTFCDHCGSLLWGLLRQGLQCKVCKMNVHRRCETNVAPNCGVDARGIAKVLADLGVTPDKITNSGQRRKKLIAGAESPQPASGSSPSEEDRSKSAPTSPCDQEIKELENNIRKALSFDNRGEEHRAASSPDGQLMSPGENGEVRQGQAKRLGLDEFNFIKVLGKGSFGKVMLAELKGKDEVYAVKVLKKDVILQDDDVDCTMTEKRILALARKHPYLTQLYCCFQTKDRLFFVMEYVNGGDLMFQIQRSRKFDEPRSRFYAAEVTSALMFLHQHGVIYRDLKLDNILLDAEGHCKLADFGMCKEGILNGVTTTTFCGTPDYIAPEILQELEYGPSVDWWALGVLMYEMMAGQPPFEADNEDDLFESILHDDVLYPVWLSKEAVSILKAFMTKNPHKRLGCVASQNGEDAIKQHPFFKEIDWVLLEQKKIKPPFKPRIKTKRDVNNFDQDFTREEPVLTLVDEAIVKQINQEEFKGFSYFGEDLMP
assay overview: PKC isoform translocation in A549-tGFP cells
condition context: A549-tGFP cells, 60 minutes
So I've got a bunch of compounds here, and I need their pEC50 values.
Answers are plain numbers, as −log10 of the molar value.

Parameter requested: pEC50. Apply to each item below.
1. Cc1ccc(C#Cc2ccc3oc(CC(C)(C)C(=O)OCC4(CO)CC(=CCC(CC(C)C)CC(C)C)C(=O)O4)cc3c2)cc1 (stereo not shown) [C-232A]
2. CC(C)=C1CC(CO)(COC(=O)c2ccc(C#Cc3ccc(C)cc3)cc2)OC1=O (stereo not shown)
3. Cc1ccc(C#Cc2ccc(C(=O)OCC3(CO)Cc4c(-c5ccccc5)ccnc4O3)cc2)cc1 (stereo not shown)
4. CC(C)CC(C/C=C1\CC(CO)(COC(=O)C(C)(C)C)OC1=O)CC(C)C (stereo not shown) [AJH-863, reference compound]

7.24
6.11
6.62
6.30
